Data provenance is ChEMBL document CHEMBL5608163.

Would you kindly list HC50 for each of these compounds?
Test: Hemolytic activity against human Red blood cells assessed as cell lysis
Type: toxicity, cell-based, Erythrocyte
Peptide text beside a SMILES is read from it.

Use the examples below as a reference point.
CC[C@H](C)[C@H](NC(=O)[C@H](CCCCN)NC(=O)[C@H](CCCCN)NC(=O)[C@H](CC(C)C)NC(=O)[C@H](CC(C)C)NC(=O)CN)C(=O)N[C@@H](CCCCN)C(=O)N[C@@H](CCCNC(=N)N)C(=O)N[C@@H](CC(C)C)C(=O)N[C@@H](CC(C)C)C(N)=O (H-GLLKKIKRLL-NH2) :: > 170 µM
CC[C@H](C)[C@H](NC(=O)[C@H](CCCCN)NC(=O)[C@H](CC(C)C)NC(=O)[C@H](CC(C)C)NC(=O)CN)C(=O)N[C@H](C(=O)N[C@@H](CCCCN)C(=O)N[C@@H](CCCNC(=N)N)C(=O)N[C@@H](CC(C)C)C(=O)N[C@@H](CC(C)C)C(N)=O)[C@@H](C)CC (H-GLLKIIKRLL-NH2) :: > 172 µM

For each entry beneath this line, provide reported HC50.
1. CC[C@H](C)[C@H](NC(=O)[C@H](Cc1ccccc1)NC(=O)[C@H](CCCCN)NC(=O)[C@H](CC(C)C)NC(=O)[C@H](CC(C)C)NC(=O)CN)C(=O)N[C@@H](CCCCN)C(=O)N[C@@H](CCCNC(=N)N)C(=O)N[C@@H](CC(C)C)C(=O)N[C@@H](CC(C)C)C(N)=O (H-GLLKFIKRLL-NH2)
2. CC[C@H](C)[C@H](NC(=O)[C@H](CCCCN)NC(=O)[C@H](CC(C)C)NC(=O)[C@H](CC(C)C)NC(=O)CN)C(=O)N[C@H](C(=O)N[C@@H](CCCCN)C(=O)N[C@@H](CCCCN)C(=O)N[C@@H](CC(C)C)C(=O)N[C@@H](CC(C)C)C(N)=O)[C@@H](C)CC (H-GLLKIIKKLL-NH2)

Found:
["> 167 µM", "> 167 µM"]

###

So I've got a bunch of compounds here, and I need their HC10 values.
Tested on: Erythrocyte
Test: Hemolytic activity in mouse RBC
Assay type: toxicity, cell-based
Square brackets hold non-standard residues; d marks the D form. Peptide text beside a SMILES is read from it. Gly(N(CH2)2(3-indolyl)) = O=C(O)CNCCc1c[nH]c2ccccc12; Nleu = CC(C)CNCC(=O)O

CC[C@H](C)[C@H](NC(=O)[C@H](CCCNC(=N)N)NC(=O)[C@H](CCCCN)NC(=O)[C@H](CC(C)C)NC(=O)[C@H](CC(C)C)NC(=O)CNCC(C)C)C(=O)N[C@@H](CCCCN)C(=O)N[C@H](C(=O)N[C@@H](CC(C)C)C(=O)N[C@@H](CC(C)C)C(N)=O)[C@@H](C)O (H-[Nleu]LLKRIKTLL-NH2) :: > 50 µM

Lookup: Return reported HC10. Input compound: CC[C@H](C)[C@H](NC(=O)[C@H](CCCNC(=N)N)NC(=O)[C@H](CCCCN)NC(=O)[C@H](CC(C)C)NC(=O)[C@H](CC(C)C)NC(=O)CNCCc1c[nH]c2ccccc12)C(=O)N[C@@H](CCCCN)C(=O)N[C@H](C(=O)N[C@@H](CC(C)C)C(=O)N[C@@H](CC(C)C)C(N)=O)[C@@H](C)O (H-[Gly(N(CH2)2(3-indolyl))]LLKRIKTLL-NH2)
Found: > 50 µM
